ASSAYED_SYSTEM: human PAH with the R408W mutation (Homo sapiens, UniProt P00439, R408W)
Construct: expressed in transfected cells
Sequence (P00439 whole entry R408W): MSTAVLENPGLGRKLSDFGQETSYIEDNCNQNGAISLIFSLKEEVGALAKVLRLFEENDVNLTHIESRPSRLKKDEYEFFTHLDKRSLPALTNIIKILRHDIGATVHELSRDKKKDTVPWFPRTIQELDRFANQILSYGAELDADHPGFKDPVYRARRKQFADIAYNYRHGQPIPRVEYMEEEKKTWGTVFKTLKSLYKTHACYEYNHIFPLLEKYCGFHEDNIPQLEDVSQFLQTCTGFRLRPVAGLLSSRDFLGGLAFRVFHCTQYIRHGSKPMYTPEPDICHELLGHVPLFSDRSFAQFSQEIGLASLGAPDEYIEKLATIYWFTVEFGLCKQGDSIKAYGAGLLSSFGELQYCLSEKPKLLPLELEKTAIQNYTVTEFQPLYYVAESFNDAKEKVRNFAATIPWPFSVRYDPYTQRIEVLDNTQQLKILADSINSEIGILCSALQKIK
EXPERIMENT: Cell Based Phenylalanine Flux Assay
SETTINGS: A375 cells expressing human R408W PAH; 24 hrs compound incubation; 13C-Tyrosine by LC-MS; average where tested multiple times; read-out: AC50
QUANTITY_MEASURED: AC50

>  <COMPOUND>
Cc1cccc2nc([C@@H]3c4nc[nH]c4CCN3C(=O)c3cnco3)sc12 [Example 2179]

>  <OBSERVED_RESULT>
< 500 nM

$$$$
>  <COMPOUND>
O=C(c1oc(C2(O)CCC2)nc1C(F)(F)F)N1CCc2[nH]cnc2[C@@H]1c1nc2ccccc2s1 [Example 1566]

>  <OBSERVED_RESULT>
< 500 nM

$$$$
>  <COMPOUND>
O=C(c1cnn2cc(-c3ccccn3)ccc12)N1CCc2[nH]cnc2[C@H]1c1nc2ccccc2s1 [Example 1211]

>  <OBSERVED_RESULT>
500 to 1000 nM

$$$$

Okay, now this compound:
Query :: Recorded AC50 of Brc1ccc2nc([C@@H]3c4nc[nH]c4CCN3Cc3nccs3)[nH]c2c1 [Example 971] , please.
Result :: < 500 nM
